Give Kd for every item shown.
- System Tested: HLA-B*51:01
- Protocol Notes: IEDB peptide-MHC binding, purified MHC/direct/fluorescence; filed as Kd, often an IC50 or EC50 that approximates it; bounds were set here for any values at or beyond the usual limits of such assays
- Measurement Context: source organism: Mycobacterium tuberculosis

Observed Kd on HLA-B*51:01 for "VPRDRNGTF" , please.
≥ 20 µM

Observed Kd on HLA-B*51:01 for "RGRIGRTYL" , please.
≥ 20 µM

Observed Kd on HLA-B*51:01 for "RIRSERPAF" , please.
≥ 20 µM

----------
- System Tested: HLA-A*26:02
- Protocol Notes: IEDB peptide-MHC binding, purified MHC/direct/fluorescence; filed as Kd, often an IC50 or EC50 that approximates it; bounds were set here for any values at or beyond the usual limits of such assays
- Measurement Context: source organism: Yellow fever virus
pKd: −log10 of the molar value.
Measure Name: pKd

Requested field: pKd. Item: "YVIRDLAAM"
≥ 9.00

----------
- System Tested: HLA-A*33:01
- Protocol Notes: IEDB peptide-MHC binding, purified MHC/competitive/radioactivity; filed as Kd, often an IC50 or EC50 that approximates it; bounds were set here for any values at or beyond the usual limits of such assays
- Measurement Context: source organism: Vaccinia virus Copenhagen
Measure Name: pKd
API: returns pKd as number; meaning -log10 of concentration in mol/L.

Requested field: pKd. Item: "FILGIIITV"
5.35

----------
- System Tested: HLA-B*15:01
- Protocol Notes: IEDB peptide-MHC binding, purified MHC/direct/fluorescence; filed as Kd, often an IC50 or EC50 that approximates it; bounds were set here for any values at or beyond the usual limits of such assays
- Measurement Context: source organism: Mycobacterium tuberculosis str. Haarlem
Measure Name: Kd (nM)
Report the figure in nM without appending any unit label.

Requested field: Kd. Item: "EILWDVIPF"
191

----------
- System Tested: HLA-A*24:02
- Protocol Notes: IEDB peptide-MHC binding, purified MHC/competitive/radioactivity; filed as Kd, often an IC50 or EC50 that approximates it; bounds were set here for any values at or beyond the usual limits of such assays
- Measurement Context: source organism: Triticum aestivum
pKd: −log10 of the molar value.
Measure Name: pKd

Observed pKd on HLA-A*24:02 for "VVLQQHSIAY" , please.
≤ 4.40

----------
- System Tested: HLA-B*51:01
- Protocol Notes: IEDB peptide-MHC binding, purified MHC/direct/fluorescence; filed as Kd, often an IC50 or EC50 that approximates it; bounds were set here for any values at or beyond the usual limits of such assays
- Measurement Context: source organism: Salmonella enterica subsp. enterica serovar Typhimurium str. LT2
Measure Name: Kd

Requested field: Kd. Item: "FPASHMATY"
≥ 20 µM

----------
- System Tested: HLA-C*03:03
- Protocol Notes: IEDB peptide-MHC binding, purified MHC/direct/fluorescence; filed as Kd, often an IC50 or EC50 that approximates it; bounds were set here for any values at or beyond the usual limits of such assays
- Measurement Context: source organism: West Nile virus
Measure Name: Kd (nM)
Report the figure in nM without appending any unit label.

Requested field: Kd. Item: "ILRNPGYAL"
157

----------
- System Tested: HLA-A*03:01
- Protocol Notes: IEDB peptide-MHC binding, purified MHC/direct/fluorescence; filed as Kd, often an IC50 or EC50 that approximates it; bounds were set here for any values at or beyond the usual limits of such assays
- Measurement Context: source organism: Orthohantavirus tulaense
pKd: −log10 of the molar value.
Measure Name: pKd

Requested field: pKd. Item: "SLFGAAVSL"
≤ 4.70
